Taken from patent US20260146035A1.

# system: human AXL (473-end) (Homo sapiens, UniProt P30530)
# Construct: human AXL (473-end); purchased SignalChem, Canada
# Sequence (P30530 473-894 limits assumed): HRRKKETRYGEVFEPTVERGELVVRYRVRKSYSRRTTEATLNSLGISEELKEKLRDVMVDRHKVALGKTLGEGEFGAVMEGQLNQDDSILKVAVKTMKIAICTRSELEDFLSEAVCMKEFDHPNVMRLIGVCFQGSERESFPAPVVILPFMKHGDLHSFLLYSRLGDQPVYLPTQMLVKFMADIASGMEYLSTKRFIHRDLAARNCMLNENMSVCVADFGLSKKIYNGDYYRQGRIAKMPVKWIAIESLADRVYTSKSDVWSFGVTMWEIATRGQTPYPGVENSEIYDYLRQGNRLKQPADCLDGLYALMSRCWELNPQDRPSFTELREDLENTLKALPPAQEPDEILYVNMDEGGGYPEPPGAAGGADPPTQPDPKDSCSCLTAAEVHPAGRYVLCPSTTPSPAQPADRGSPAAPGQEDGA
# assay_remarks: HTRF kinase activity biochemical assay, AXL
# run_conditions: 10 μM ATP, 30 minutes pre-incubation
pIC50: −log10 of the molar value.
reported_endpoint: pIC50

Entry Nc1ncc(-c2cccnc2F)cc1C(=O)N[C@H]1CCC[C@@H]1OCc1ccc(-c2ccc3c(c2)CC[C@@H]3N2CCN3C[C@H](O)C[C@H]3C2)cc1 , system human AXL (473-end) (Homo sapiens, UniProt P30530): what pIC50 was measured?
> 8.00

Enter reported pIC50 observed with human AXL (473-end) (Homo sapiens, UniProt P30530) for CC1(C)C[C@@H](N2CCN(CCO)CC2)c2ccc(-c3ccc(CO[C@H]4CCC[C@@H]4NC(=O)c4cc(-c5ccc(F)nc5)cnc4N)cc3)cc21
6.00 to 7.00

Look up pIC50 with human AXL (473-end) (Homo sapiens, UniProt P30530) for this compound: Cn1cc(-c2cnc(N)c(C(=O)N[C@H]3COC[C@@H]3OCc3ccc(-c4ccc5c(c4)C(C)(C)CN5C4CCN(CCO)CC4)cc3)c2)cn1
> 8.00

Query the reported pIC50 for human AXL (473-end) (Homo sapiens, UniProt P30530); item: Cn1cc(-c2cnc(N)c(C(=O)N[C@H]3CCC[C@@H]3OCc3ccc(-c4ccc5c(c4)C4(CCOC4)CN5C4CCN(CCO)CC4)cc3)c2)cn1 (stereo partly drawn)
6.00 to 7.00

Give human AXL (473-end) (Homo sapiens, UniProt P30530) pIC50 for COc1ccnc(N)c1C(=O)N[C@H]1CCC[C@@H]1OCc1ccc(-c2ccc3c(c2)CC[C@@H]3N2CCN(CCO)CC2)cc1
> 8.00

Give the reported pIC50 for CC1(C)CN(C2CCN(CCO)CC2)c2ccc(-c3ccc(CO[C@H]4CCC[C@@H]4NC(=O)c4cc(-c5ccc(F)nc5)cnc4N)cc3)cc21 (system: human AXL (473-end) (Homo sapiens, UniProt P30530)).
> 8.00

Provide the documented pIC50 with human AXL (473-end) (Homo sapiens, UniProt P30530) as the system for Cn1cc(-c2cnc(N)c(C(=O)N[C@H]3CCC[C@@H]3OCc3ccc(-c4ccc5c(c4)CC[C@H]5N4CCN(CC(O)CO)CC4)cc3)c2)cn1 (stereo partly drawn)
7.00 to 8.00

API: value(readout=pIC50, system=human AXL (473-end) (Homo sapiens, UniProt P30530)) for record CN(C)C1c2ccc(-c3ccc(CO[C@H]4CCC[C@@H]4NC(=O)c4cc(-c5cnn(C)c5)cnc4N)cc3)cc2CC1(C)C (stereo partly drawn)
> 8.00

// fetch human AXL (473-end) (Homo sapiens, UniProt P30530) pIC50 for Nc1ncc(-c2ccc(F)nc2)cc1C(=O)N[C@H]1CCC[C@@H]1OCc1ccc(-c2ccc3c(c2)CC(F)(F)C3N2CCN(CC(O)CO)CC2)cc1 (stereo partly drawn)
> 8.00

Reported pIC50 for human AXL (473-end) (Homo sapiens, UniProt P30530), given CN1CCC(n2ccc3cc(-c4ccc(CO[C@H]5CCC[C@@H]5NC(=O)c5cc(-c6cnn(C)c6)cnc5N)cc4)ccc32)CC1 ?
> 8.00

Which measured pIC50 belongs to Cn1cc(-c2cnc(N)c(C(=O)N[C@H]3CCC[C@@H]3OCc3ccc(-c4cnc5c(c4)C(C)(C)C(=O)N5C4CCN(CCO)CC4)cc3)c2)cn1 , tested on human AXL (473-end) (Homo sapiens, UniProt P30530)?
6.00 to 7.00

Recall the recorded pIC50 for CC1(C)C[C@H](N2CCN(C[C@H](O)CO)CC2)c2ccc(-c3ccc(CO[C@H]4CCC[C@@H]4NC(=O)c4cc(-c5cccnc5F)cnc4N)cc3)cc21 with human AXL (473-end) (Homo sapiens, UniProt P30530) and state it.
> 8.00
